Just for reference, patent US20230391845A1 is where these values come from.

SYSTEM_UNDER_TEST: human glucagon receptor (human, UniProt P47871 26-477)
Sequence (P47871 26-477): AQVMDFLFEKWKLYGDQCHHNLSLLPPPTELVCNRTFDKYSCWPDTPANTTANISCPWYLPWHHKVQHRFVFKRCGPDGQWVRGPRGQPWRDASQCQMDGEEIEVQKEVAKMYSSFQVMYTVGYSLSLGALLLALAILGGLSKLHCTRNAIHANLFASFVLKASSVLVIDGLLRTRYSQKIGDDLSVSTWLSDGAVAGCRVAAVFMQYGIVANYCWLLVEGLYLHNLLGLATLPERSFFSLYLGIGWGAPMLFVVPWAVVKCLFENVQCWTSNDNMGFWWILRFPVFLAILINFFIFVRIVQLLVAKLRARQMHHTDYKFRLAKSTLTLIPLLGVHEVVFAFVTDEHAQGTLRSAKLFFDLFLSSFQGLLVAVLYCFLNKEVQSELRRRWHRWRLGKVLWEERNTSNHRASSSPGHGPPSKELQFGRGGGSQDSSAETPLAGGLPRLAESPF
EXPERIMENT_DESCRIPTION: cell-based or functional assay
Where no end group is shown, it is not given here. [ ]: non-standard residue; d: D form. Aib = CC(C)(N)C(=O)O
Field: hGcgR CRE Luc EC50 (pM). Provide a value for each of the binders that follow.
The reply should contain only the number, in pM.

Problem: Quick one: hGcgR CRE Luc EC50 (pM) for H[Aib]HGTFTSDYSYYLEKQAA[Aib]EFVQWLLEGGPSSGAPPPS-NH2 (not fully specified (residue 16); printed as H-Aib-HGTFTSDYSYYLE-K[(2S)-2-amino-6-[[(2S)-2-amino-6-[[(4S)-4-carboxy-4-(19-carboxynonadecanoylamino)butanoyl]amino]hexanoyl]amino]hexanoyl]-QAA-Aib-EFVQWLLEGGPSSGAPPPS-NH2) [Compound No. 26] ?
Result: 13.6

Problem: Continue with Y[Aib]QGTFTSDYSIYLDKQAA[Aib]KFVQWLLEGGPSSGAPPPS-NH2 (not fully specified (residue 21); printed as Y-Aib-QGTFTSDYSIYLDKQAA-Aib-K[2-[2-[2-[[2-[2-[2-11(4S)-4-carboxy-4-(19-carboxynonadecanoylamino)butanoyl]amino]ethoxy]ethoxy]acetyl]amino]ethoxy]ethoxy]acetyl]-FVQWLLEGGPSSGAPPPS-NH2) [Compound No. 7]
Result: 61.3

Problem: Continue with Y[Aib]QGTFTSDYSIYLDKQAA[Aib]KFVQWLLEGGPSSGAPPPS-NH2 (not fully specified (residue 21); printed as Y-Aib-QGTFTSDYSIYLDKQAA-Aib-K[2-[2-[2-[[2-[2-[2-[[(4S)-4-carboxy-4-[[4-[(19-carboxynonadecanoylamino)methyl]cyclohexanecarbonyl]amino]butanoyl]amino]ethoxy]ethoxy]acetyl]amino]ethoxy]ethoxy]acetyl]-FVQWLLEGGPSSGAPPPS-NH2) [Compound No. 8]
Result: 91.9

Problem: Continue with H[Aib]HGTFTSDYSILLEKKYA[Aib]EFVQWLLEGGPSSGAPPPS-NH2 (not fully specified (residue 16); printed as H-Aib-HGTFTSDYSILLE-K[(2S)-2-amino-6-[[(2S)-2-amino-6-[[(4S)-4-carboxy-4-(19-carboxynonadecanoylamino)butanoyl]amino]hexanoyl]amino]hexanoyl]-KYA-Aib-EFVQWLLEGGPSSGAPPPS-NH2) [Compound No. 41]
Result: 7.6

Problem: Continue with Y[Aib]QGTFTSDYSIYLDKKAA[Aib]EFVNWLLAGGPSSGAPPPS-NH2 (not fully specified (residue 17); printed as Y-Aib-QGTFTSDYSIYLDK-K[2-[2-[2-[[2-[2-[2-[[(4S)-4-carboxy-4-(17-carboxyheptadecanoylamino)butanoyl]amino]ethoxy]ethoxy]acetyl]amino]ethoxy]ethoxy]acetyl]-AA-Aib-EFVNWLLAGGPSSGAPPPS-NH2) [Compound No. 2]
Result: 47.6
